test: Partition coefficient (logD7.4) measured using octanol and PBS at pH7.4; assay type: physicochemical; details: pH 7.4, read-out: LogD7.4
QUANTITY NAME: logD

Sample answers from the record:
SAMPLE SMILES	QUANTITY NAME	ENDPOINT VALUE
c1ccc(Cn2cnc3ccccc32)cc1	logD	2.91
O=C(O)Cc1ccc(Cn2ccnc2)cc1	logD	-2.37

[a] NC(=O)c1cccc(Cn2ccnc2)c1
[b] O=C(O)Cc1ccc(Cn2cccn2)cc1
In terms of reported logD, does a or b have the smaller number? Reply briefly: the label of your chosen item. b

---

assay: Permeability directional ratio (PB-A/PA-B) in Caco-2 cell; format: ADME, cell-based; settings: human, read-out: PDR
QUANTITY NAME: efflux ratio

[a] c1ccc(-c2nn[nH]n2)c(Cn2cnc3ccccc32)c1
[b] c1cnc(Cc2cccc(-c3nn[nH]n3)c2)nc1
Field: lower recorded efflux ratio (choose a or b ) Give the chosen item's label as your response. b
(b: 20, a: 180)

[I] O=C(O)c1ccc(Cn2ccnc2)cc1
[II] c1cc(Cn2cnc3ccccc32)cc(-c2nn[nH]n2)c1
Which has the higher efflux ratio, I or II ? To answer, give the label that identifies your chosen option. II
(II: 145, I: 1)

[P] N=C(N)c1cccc(Cc2ncccn2)c1
[Q] c1ccc2c(c1)ncn2Cc1ccc(-c2nn[nH]n2)cc1
[R] O=S(=O)(O)c1ccc(Cn2cnc3ccccc32)cc1
Rank order required: efflux ratio, descending. List the labels in the requested order. Q, R, P

---

test: Partition coefficient (logD7.4) measured using octanol and PBS at pH7.4; assay type: physicochemical; settings: pH 7.4, read-out: LogD7.4
QUANTITY NAME: logD

These solved cases illustrate the format of a correct answer.
SAMPLE SMILES	QUANTITY NAME	ENDPOINT VALUE
NS(=O)(=O)c1ccc(Cn2cnc3ccccc32)cc1	logD	1.04
NC(=O)c1cccc(Cc2ncccn2)c1	logD	0.28
N#Cc1cccc(Cn2cccn2)c1	logD	1.74

[A] O=C(O)c1ccc(Cc2ncccn2)cc1
[B] NCc1cccc(Cc2ncccn2)c1
[C] c1cc(Cn2cnc3ccccc32)cc(-c2nn[nH]n2)c1
[D] NC(=O)c1cccc(Cn2cnc3ccccc32)c1
[E] NCc1cccc(Cn2cccn2)c1
Put the entries in order of logD, starting with the largest number. List the labels in the requested order. D, C, E, B, A

[1] O=C(O)c1cccc(Cc2ncccn2)c1
[2] NCc1cccc(Cn2cnc3ccccc32)c1
// max by logD over [ 1 , 2 ] Let me know the label of the one you choose. 2

[a] O=C(O)c1cccc(Cn2cccn2)c1
[b] O=C(O)c1ccc(Cn2cnc3ccccc32)cc1
Quick check, higher logD between a and b ? // return label of chosen record b
(b: -0.61, a: -1.62)

[a] O=C(O)c1ccc(Cn2cccn2)cc1
[b] N#Cc1cccc(Cn2ccnc2)c1
Would you kindly point out which of a and b has the smaller logD figure? Please indicate the selected item by its label. a
(a: -1.65, b: 1.01)

---

experiment: Distribution coefficient of octanol and phosphate buffered saline at pH 7.4; format: physicochemical; conditions: read-out: Log Doct/PBS
QUANTITY NAME: logD

See these solved cases before continuing.
SAMPLE SMILES	ENDPOINT VALUE
O=S(=O)(O)c1ccc(Cn2cnc3ccccc32)cc1	1.78
O=C(O)c1cccc(Cn2cnc3ccccc32)c1	-0.72
CS(=O)(=O)Nc1cccc(Cn2cnc3ccccc32)c1	2.08
O=C(O)c1ccc(Cn2ccnc2)cc1	-2.1

[I] N=C(N)c1cccc(Cc2ncccn2)c1
[II] Nc1cccc(Cn2cnc3ccccc32)c1
Which has the smaller recorded logD, I or II ? Lab note: record the label of whichever item you select. I
